System: Fibroblast
ASSAY_COMMENT: Multiplex assay against human fibroblast
Type: toxicity, cell-based
COND: 12 h, 1 µM, compound concentration 1 uM, replicate 1
Non-standard residues stand in square brackets, D forms with d. Residues, ends and D or L forms follow the SMILES beside them.
READOUT_NAME: Population Healthy Nuclei (%)

>  <COMPOUND>
Cc1cc(-c2ccc3c(c2)CC[C@H]3N2CC3(CCN(C(=O)Cc4cn5cc(C)sc5n4)CC3)C2)ncn1

>  <UNIT_ABBREVIATION>
%

>  <NUMERIC_RESULT>
71

$$$$
>  <COMPOUND>
CCCCCCNC(=O)Nc1ccc(S(=O)(=O)Nc2ccc(CCNC[C@H](O)COc3ccc(O)cc3)cc2)cc1

>  <UNIT_ABBREVIATION>
%

>  <NUMERIC_RESULT>
59

$$$$
>  <COMPOUND>
Cc1cc(NC(=O)NCCN2CCC(O)(Cc3ccccc3)CC2)c2ccccc2n1

>  <UNIT_ABBREVIATION>
%

>  <NUMERIC_RESULT>
77

$$$$
>  <COMPOUND>
CCc1nn2c(C)cc(C)nc2c1Cc1ccc(-c2nnc(C3CCNCC3)o2)cc1

>  <UNIT_ABBREVIATION>
%

>  <NUMERIC_RESULT>
63

$$$$
>  <COMPOUND>
O=C(O)CCC/C=C\CC1C(O)CC(O)C1/C=C/C(O)COc1cccc(Cl)c1 (configuration not stated)

>  <UNIT_ABBREVIATION>
%

>  <NUMERIC_RESULT>
68

$$$$
>  <COMPOUND>
OCCCNc1cc(-c2ccnc(Nc3cccc(Cl)c3)n2)ccn1

>  <UNIT_ABBREVIATION>
%

>  <NUMERIC_RESULT>
66

$$$$
>  <COMPOUND>
S=C(NCCCc1c[nH]cn1)NCCCN(Cc1ccc(Cl)c(Cl)c1)c1ccc(Br)cn1

>  <UNIT_ABBREVIATION>
%

>  <NUMERIC_RESULT>
71

$$$$
>  <COMPOUND>
CN1CCC(C(=O)c2cccc(NC(=O)c3c(F)cc(F)cc3F)n2)CC1

>  <UNIT_ABBREVIATION>
%

>  <NUMERIC_RESULT>
64

$$$$
>  <COMPOUND>
CC(C)C[C@H](CO)Nc1nc(S[C@@H](C)c2ccccc2)nc2nc(N)sc12

>  <UNIT_ABBREVIATION>
%

>  <NUMERIC_RESULT>
62

$$$$
>  <COMPOUND>
Cc1c(Cc2ccc3ccccc3n2)c2cc(F)ccc2n1CC(=O)O

>  <UNIT_ABBREVIATION>
%

>  <NUMERIC_RESULT>
67

$$$$
>  <COMPOUND>
CC(C)C[C@@H]1NC(=O)[C@@H](C(C)C)NC(=O)[C@@H]2CCCN2C(=O)[C@@H](CC(=O)O)NC(=O)[C@@H](Cc2c[nH]c3ccccc23)NC1=O [BQ-123] (cyclo(L[dW][dD]P[dV]))

>  <UNIT_ABBREVIATION>
%

>  <NUMERIC_RESULT>
68

$$$$
>  <COMPOUND>
CC(C)(C)c1ccc(CSc2cnn(C(C)(C)C)c(=O)c2Cl)cc1

>  <UNIT_ABBREVIATION>
%

>  <NUMERIC_RESULT>
66

$$$$
>  <COMPOUND>
COc1ccc2c(c1OCc1ccccc1)C[C@@H](C(=O)O)N(C(=O)C(c1ccccc1)c1ccccc1)C2

>  <UNIT_ABBREVIATION>
%

>  <NUMERIC_RESULT>
63

$$$$
>  <COMPOUND>
COc1c(Nc2ccc(S(C)(=O)=O)nc2C)ncnc1OC1CCN(C(=O)OC(C)C)CC1

>  <UNIT_ABBREVIATION>
%

>  <NUMERIC_RESULT>
71

$$$$
>  <COMPOUND>
Nc1nc(CC(=O)Nc2ccc(CCNC[C@H](O)c3ccccc3)cc2)cs1

>  <UNIT_ABBREVIATION>
%

>  <NUMERIC_RESULT>
62

$$$$
>  <COMPOUND>
CC(C)(O)C(=O)N1CCN(c2ccc(C(F)(F)F)c(C3=C(c4c[nH]c5ccccc45)C(=O)NC3=O)c2)CC1

>  <UNIT_ABBREVIATION>
%

>  <NUMERIC_RESULT>
68

$$$$
>  <COMPOUND>
COc1cc(OC2CCN(C(C)=O)CC2)ccc1C(=O)N1CCC(N2C(=O)OCc3ccccc32)CC1

>  <UNIT_ABBREVIATION>
%

>  <NUMERIC_RESULT>
64

$$$$

====

Measured Population Tubulin-Different-Phenotype (%), listed per entry.
System: U2OS
ASSAY_COMMENT: Multiplex assay against U2OS
Format: toxicity, cell-based
COND: human, 12 h, 10 µM, compound concentration 10 uM, replicate 2
READOUT_NAME: Population Tubulin-Different-Phenotype (%)

>  <MOLECULE>
Cn1cc(C(=O)OCC2CCN(CCNS(C)(=O)=O)CC2)c2ccccc21

>  <RESULT>
9%

$$$$
>  <MOLECULE>
Cc1nn(C)c2nc(NNC(=O)Nc3cc(Cl)nc(Cl)c3)cc(C(C)C)c12

>  <RESULT>
77%

$$$$
>  <MOLECULE>
COC(c1ccccc1)(c1ccccc1)[C@H](Oc1nc(C)cc(C)n1)C(=O)O

>  <RESULT>
0%

$$$$
>  <MOLECULE>
Cc1sc2c(c1C)C(c1ccc(Cl)cc1)=N[C@H](CC(=O)OC(C)(C)C)c1nnc(C)n1-2

>  <RESULT>
11%

$$$$
>  <MOLECULE>
CCCCCCNC(=O)Nc1ccc(S(=O)(=O)Nc2ccc(CCNC[C@H](O)COc3ccc(O)cc3)cc2)cc1

>  <RESULT>
15%

$$$$
>  <MOLECULE>
CN1CCC(C(=O)c2cccc(NC(=O)c3c(F)cc(F)cc3F)n2)CC1

>  <RESULT>
15%

$$$$
>  <MOLECULE>
COCCn1c(C)c(C)s/c1=N\C(=O)C1C(C)(C)C1(C)C

>  <RESULT>
4%

$$$$
>  <MOLECULE>
O=C(NCCNCC(O)COc1ccc(O)cc1)N1CCOCC1.O=C(NCCNCC(O)COc1ccc(O)cc1)N1CCOCC1.O=C(O)/C=C/C(=O)O (stereo not drawn) [XAMOTEROL FUMARATE]

>  <RESULT>
7%

$$$$

====

Tested on: HEK-293T
ASSAY_COMMENT: Multiplex assay against HEK293T
Assay type: toxicity, cell-based
COND: human, 24 h, 1 µM, compound concentration 1 uM, replicate 2
Measured Population Mitotic Cells (%), listed per entry.

>  <COMPOUND>
CC(C)(C)c1ccc(CSc2cnn(C(C)(C)C)c(=O)c2Cl)cc1

>  <UNIT_ABBREVIATION>
%

>  <Population Mitotic Cells (%)>
64

$$$$
>  <COMPOUND>
COc1cc(Nc2ncc3c(n2)-c2ccc(Cl)cc2C(c2c(F)cccc2OC)=NC3)ccc1C(=O)O

>  <UNIT_ABBREVIATION>
%

>  <Population Mitotic Cells (%)>
52

$$$$
>  <COMPOUND>
CCn1c(-c2nc3cc(C(=O)N4CCCC(N)C4)ccc3n2C)cc2ccccc21.Cl (stereo not given)

>  <UNIT_ABBREVIATION>
%

>  <Population Mitotic Cells (%)>
60

$$$$
>  <COMPOUND>
COCCn1c(C)c(C)s/c1=N\C(=O)C1C(C)(C)C1(C)C

>  <UNIT_ABBREVIATION>
%

>  <Population Mitotic Cells (%)>
64

$$$$
>  <COMPOUND>
CN(C)C/C=C/C(=O)Nc1ccc(C(=O)N2CCCC(Nc3ncc(Cl)c(-c4c[nH]c5ccccc45)n3)C2)cc1 (stereo not given)

>  <UNIT_ABBREVIATION>
%

>  <Population Mitotic Cells (%)>
25

$$$$

====

Tested on: U2OS
ASSAY_COMMENT: Multiplex assay against U2OS
Format: toxicity, cell-based
COND: human, 48 h, 1 µM, compound concentration 1 uM, replicate 2
Measured Population Hoechst High Intensity Objects (%), listed per entry.
READOUT_NAME: Population Hoechst High Intensity Objects (%)

>  <COMPOUND>
CSc1nc(NC2CCCC2)c([N+](=O)[O-])c(NC2CCCC2)n1

>  <UNIT_ABBREVIATION>
%

>  <NUMERIC_RESULT>
0

$$$$
>  <COMPOUND>
CCn1c(-c2nc3cc(C(=O)N4CCCC(N)C4)ccc3n2C)cc2ccccc21.Cl (stereo not given)

>  <UNIT_ABBREVIATION>
%

>  <NUMERIC_RESULT>
4

$$$$
>  <COMPOUND>
COc1cc2nc(N3CCN(C(=O)COc4c(OC)cccc4C(C)C)CC3)nc(N)c2cc1OC.Cl.Cl

>  <UNIT_ABBREVIATION>
%

>  <NUMERIC_RESULT>
3

$$$$
>  <COMPOUND>
CN1CCC(C(=O)c2cccc(NC(=O)c3c(F)cc(F)cc3F)n2)CC1

>  <UNIT_ABBREVIATION>
%

>  <NUMERIC_RESULT>
5

$$$$
>  <COMPOUND>
Nc1nc(-c2ccco2)c2cnn(Cc3ccccc3F)c2n1

>  <UNIT_ABBREVIATION>
%

>  <NUMERIC_RESULT>
6

$$$$
